Assay: Quantitative High-Throughput drug screen in 47 multiple myeloma cell lines against the NCATS MIPE library collection: ARD_JJKsccE7 cell viability assay (AID 1918929; note: potency is the fitted concentration of half-maximal effect)
Details: ARD myeloma cell line viability, CellTiter-Glo, 48 h; series mostly up to 45.8 µM
Inconclusive results are not listed. Activity calls are given as the source filed them. Calls come from the whole dose curve; as a rule, active = well fitted cell-killing curve with a large enough effect; inconclusive = small, poorly fitted or top-dose-only effect, or effect the other way; inactive = no such curve, though single readings can be large or run the other way.
METRIC: Potency

Answered cases to consult:
> print(dat)
                                   molecule   metric    value.observed
1  Oc1ccc(-c2nc(-c3ccc(F)cc3)c(-c3ccncc3)[nH]2)cc1  Potency          inactive
2                 CNC[C@H](O)c1ccc(O)c(O)c1  Potency          inactive
3        CCOC(=O)C1=C(O)C(=O)N(Cc2ccccc2)C1  Potency          inactive
4            O=C1c2ccccc2-c2n[nH]c3cccc1c23  Potency  1180 nM (active)
5  CC(C)[C@H](N)C(=O)OCCOCn1cnc2c(=O)[nH]c(N)nc21  Potency          inactive

Alright, here's another molecule for you.
What does the record list as Potency for COc1ccccc1N1CCN(CCN(C(=O)C2CCCCC2)c2ccccn2)CC1 ?
1180 nM (active)

----------
Experiment: Quantitative High-Throughput drug screen in 47 multiple myeloma cell lines against the NCATS MIPE library collection: OPM2_DSMZ cell viability assay (AID 1919872); note: nearly all actives have a fitted effect of over 30% in size
Conditions: OPM2 myeloma viability, CellTiter-Glo ATP luminescence, 48 h; series mostly up to 45.8 µM
Results filed as inconclusive are left out. Calls of active or inactive are those of the source. Calls come from the whole dose curve; as a rule, active = well fitted cell-killing curve with a large enough effect; inconclusive = small, poorly fitted or top-dose-only effect, or effect the other way; inactive = no such curve, though single readings can be large or run the other way.
Bench note: report the call from active, inactive

> print(dat)
                                   molecule  label.class
1  COCCCOc1ccnc(CS(=O)c2nc3ccccc3[nH]2)c1C (centres undefined)     inactive

Hi, sorry to bother you, what did the test record for CC(=O)NC[C@H]1CN(c2ccc(N3CCOCC3)c(F)c2)C(=O)O1 ?
inactive

And N=C(N)c1ccc2cc(OC(=O)c3ccc(N=C(N)N)cc3)ccc2c1 ?
active

Same question for Nc1cc(C(Cl)=C(Cl)Cl)c(S(N)(=O)=O)cc1S(N)(=O)=O please.
inactive

----------
Assay: qHTS for identification of novel therapeutic agents for treatment of microphthalmiaassociated transcription factor (MiT) renal cell carcinoma (RCC) (AID 1963991)
Conditions: TFE3-RCC UOK109 viability, CellTiter-Glo, 48 h; measured here: UOK109 Z-AUC; stronger effect = lower value
Results filed as inconclusive are left out.
For each record, check the reported z-score: if it is below 0.9 write MET, else write NOT MET.

I'd appreciate it if you could check whether CC(C)C[C@H](NC(=O)[C@H](Cc1ccccc1)NC(=O)c1cnccn1)B(O)O has z-score smaller than 0.9.
MET

Would you kindly repeat that for Nc1cccc2c1CN(C1CCC(=O)NC1=O)C2=O (stereo not given) ?
MET

And C=CCc1cc(OC)c(O)c(C(=O)NCCO)c1 ?
NOT MET

And for CC(C)(S)[C@@H](N)C(=O)O ?
MET

And then CC(=O)NC[C@H]1CN(c2ccc(N3CCOCC3)c(F)c2)C(=O)O1 , what is it?
MET

Another compound to look at: O=c1c(O)c(-c2cc(O)c(O)c(O)c2)oc2cc(O)cc(O)c12
MET

Follow-up entry: COc1cc2c(cc1OC)C1CC(=O)C(CC(C)C)CN1CC2 (stereo not given)
MET

Cool, now CCCCCCCCCCCCCCCCCCCCCCO
MET

# repeat for CCCOc1ccc2nc(NC(=O)OC)[nH]c2c1
MET

// same read-out, input: CCCCN(CCCC)CCC(O)c1cc2c(Cl)cc(Cl)cc2c2cc(C(F)(F)F)ccc12 (stereo not given)
MET

Next entry: CCN(CC)CCOc1ccc(Nc2ncc3cc(-c4c(Cl)cccc4Cl)c(=O)n(C)c3n2)cc1
MET

And then C[C@@H](N)C1CCC(C(=O)Nc2ccncc2)CC1 (stereo not given in full) , what is it?
NOT MET

Queued: O=C(O)CCNC(=O)c1ccc(N=Nc2ccc(O)c(C(=O)O)c2)cc1
NOT MET

Would you kindly repeat that for CC(=O)Nc1ccc(O)cc1 ?
NOT MET

Try this compound too: N[C@@H](Cc1cc(I)c(Oc2cc(I)c(O)c(I)c2)c(I)c1)C(=O)O
MET
